Attribute: EC50
Molecular target: T1, Human interleukin-18 (recombinant human IL-18) (human, UniProt Q14116 37-193)
T1 construct: also called hIL-18
T1 sequence: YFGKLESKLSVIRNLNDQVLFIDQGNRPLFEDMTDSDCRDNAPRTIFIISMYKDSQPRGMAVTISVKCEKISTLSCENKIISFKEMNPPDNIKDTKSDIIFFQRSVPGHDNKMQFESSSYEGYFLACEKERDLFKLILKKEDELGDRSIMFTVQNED
Test: ELISA, human IL-18 captured by 16D10, antibody titrated
Entry rule: numbers only, all in mg/L.

Please review the following examples before continuing.
Summary for this binder, H2L2 humanised anti-IL-18 antibody (antibody, human IgG1, kappa, V domains shown, Human IgG1 / kappa) VH: QVQLVQSGAEVKKPGASVKVSCKVSGEISTGYYFHWVRRRPGKGLEWMGRIDPEDDSTKYAERFKDRVTMTEDTSTDTAYMELSSLRSEDTAVYYCTTWRIYRDSSGRPFYVMDAWGQGTLVTVSS VL: DIQMTQSPSSVSASVGDRVTITCLASEDIYTYLTWYQQKPGKAPKLLIYGANKLQDGVPSRFSGSGSGTDYTLTISSLQPEDFATYYCLQGSKFPLTFGQGTKLEIKR : EC50 is 0.012

Summary for this binder, H1L1 humanised anti-IL-18 antibody (antibody, human IgG1, kappa, V domains shown, Human IgG1 / kappa) VH: QVQLVQSGAEVKKPGASVKVSCKVSGEISTGYYFHWVRQAPGKGLEWMGRIDPEDDSTKYAERFKDRVTMTEDTSTDTAYMELSSLRSEDTAVYYCTTWRIYRDSSGRPFYVMDAWGQGTLVTVSS VL: DIQMTQSPSSVSASVGDRVTITCLASEDIYTYLTWYQQKPGKAPKLLIYGANKLQDGVPSRFSGSGSGTDFTLTISSLQPEDFATYYCLQGSKFPLTFGQGTKLEIKR : EC50 is 0.01

Summary for this binder, H2L3 humanised anti-IL-18 antibody (antibody, human IgG1, kappa, V domains shown, Human IgG1 / kappa) VH: QVQLVQSGAEVKKPGASVKVSCKVSGEISTGYYFHWVRRRPGKGLEWMGRIDPEDDSTKYAERFKDRVTMTEDTSTDTAYMELSSLRSEDTAVYYCTTWRIYRDSSGRPFYVMDAWGQGTLVTVSS VL: DIQMTQSPSSVSASVGDRVTITCLASEDIYTYLTWYQQKPGKAPQLLIYGANKLQDGVPSRFSGSGSGTDYTLTISSLQPEDEGDYYCLQGSKFPLTFGQGTKLEIKR : EC50 is 0.016

// switching to the query binder
Summary for this binder, H3L1 humanised anti-IL-18 antibody (antibody, human IgG1, kappa, V domains shown, Human IgG1 / kappa) VH: QVQLVQSGAEVKKPGASVKVSCKVSGEISTGYYFHFVRRRPGKGLEWMGRIDPEDDSTKYAERFKDRVTMTADTSTDTAYMELSSLRSEDTATYFCTTWRIYRDSSGRPFYVMDAWGQGTLVTVSS VL: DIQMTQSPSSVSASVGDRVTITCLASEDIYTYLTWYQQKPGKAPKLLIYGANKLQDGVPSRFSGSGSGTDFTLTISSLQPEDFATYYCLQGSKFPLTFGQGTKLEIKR : EC50 is 0.013
